This listing pairs molecules with measured half-life.
Test: Pharmacokinetic evaluation of compounds in rats
Type: in vivo
Conditions: male, rat, plasma; SD rats, iv 2 mg/kg; read-out: t1/2 (iv) (converted)
Procedure: This example was intended to investigate the pharmacokinetics of the compounds of the present invention and ND630 in SD rats under the conditions of intravenous (iv) and intragastric administration (po). […] The concentration of a target compound was detected by LC-MS/MS. According to the plasma concentration-time curve, pharmacokinetic parameters were calculated by using a non-compartmental model (NCA) of software WinNonlin 7.0. […]
Quantity: half-life (h)

COc1ccccc1[C@H](Cn1c(=O)n(C(C)(C)C(=O)O)c(=O)c2c(C)c(-c3ncco3)sc21)OC1CCOCC1 [ND630, reference compound] :: 1.06
COc1ccccc1[C@H](Cn1c(=O)n([C@H]2C[C@@H](CC(=O)O)C2)c(=O)c2c(C)c(-c3ncco3)sc21)OC1CCOCC1 :: 0.9
COc1ccccc1[C@H](Cn1c(=O)n([C@H]2C[C@H](CC(=O)O)C2)c(=O)c2c(C)c(-c3ncco3)sc21)OC1CCOCC1 :: 1.74

The measurements presented in this section are drawn from patent US12384798B2.
